Target: Nck adaptor protein (Nck1), recombinant (UniProt P16333 1-377)
Test: MST
Non-standard residues stand in square brackets, D forms with d. No end group written: not given here. pY = N[C@@H](Cc1ccc(OP(=O)(O)O)cc1)C(=O)O
PARAMETER MEASURED: Kd (nM)
Provide the reading as a plain figure in nM.

Please indicate Kd recorded for EEHI[pY]DEVAAD [peptide Y474 (pY-containing Tir peptide)] 76.4
